// pIC50 lookup, one value per entry
assay_system: PRMT5 (Homo sapiens, UniProt O14744)
Construct: purchased Viva (custom protein)
Sequence (O14744 whole entry): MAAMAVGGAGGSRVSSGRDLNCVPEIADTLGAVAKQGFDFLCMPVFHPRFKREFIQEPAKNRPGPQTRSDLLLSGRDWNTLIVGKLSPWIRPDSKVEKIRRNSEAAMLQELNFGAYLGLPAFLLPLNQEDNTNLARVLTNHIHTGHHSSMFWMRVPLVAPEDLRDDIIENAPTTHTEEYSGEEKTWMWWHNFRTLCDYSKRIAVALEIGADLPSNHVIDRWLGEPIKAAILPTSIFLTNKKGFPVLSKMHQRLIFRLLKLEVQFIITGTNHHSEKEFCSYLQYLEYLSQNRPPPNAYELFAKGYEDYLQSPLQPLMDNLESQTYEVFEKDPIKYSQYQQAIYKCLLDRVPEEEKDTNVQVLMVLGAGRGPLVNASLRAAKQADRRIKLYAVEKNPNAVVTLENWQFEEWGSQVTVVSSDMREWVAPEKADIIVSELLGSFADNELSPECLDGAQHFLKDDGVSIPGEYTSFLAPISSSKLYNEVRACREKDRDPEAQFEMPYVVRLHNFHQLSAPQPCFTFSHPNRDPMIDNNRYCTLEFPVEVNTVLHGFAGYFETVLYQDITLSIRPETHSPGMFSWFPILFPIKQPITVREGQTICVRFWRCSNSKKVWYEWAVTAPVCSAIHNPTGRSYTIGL
Sequence (Q9BQA1 whole entry partner): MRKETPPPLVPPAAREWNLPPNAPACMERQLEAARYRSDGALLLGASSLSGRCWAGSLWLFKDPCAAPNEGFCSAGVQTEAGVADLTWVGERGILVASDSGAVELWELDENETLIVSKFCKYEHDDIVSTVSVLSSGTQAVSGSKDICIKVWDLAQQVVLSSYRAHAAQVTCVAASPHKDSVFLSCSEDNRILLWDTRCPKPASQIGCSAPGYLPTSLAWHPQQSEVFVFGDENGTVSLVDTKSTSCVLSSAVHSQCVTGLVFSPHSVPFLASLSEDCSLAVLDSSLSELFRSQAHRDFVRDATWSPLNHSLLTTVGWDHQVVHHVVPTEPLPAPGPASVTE
assay_name: PRMT5 IC50 assay with no cofactor
Type: biochemical
pIC50: −log10 of the molar value.

Consider the compound `Cc1c(OCc2cnco2)ccc2c1CCN(C[C@@H](O)CNC(=O)c1ccnc(NC3CN(C(=O)C(C)C)C3)c1)C2` and give its measured pIC50. ≤ 5.30

Item under review: `CO[C@H]1C[C@H](Nc2cc(C(=O)NC[C@H](O)CN3CCc4c(ccc(OCc5cnco5)c4C)C3)ccn2)C1` . Reported pIC50? ≤ 5.30

I'd like to know its pIC50. The compound in question is `CCN(C)c1cc(C(=O)NC[C@H](O)CN2CCc3cc(OCc4ocnc4C)ccc3C2)cc(NC2CCC2)n1` ≤ 5.30

---

assay_system: PRMT5 (Homo sapiens, UniProt O14744)
Construct: purchased Viva (custom protein)
assay_name: PRMT5 IC50 assay in the presence of SAM as cofactor
Type: biochemical
pIC50: −log10 of the molar value.
measure_name: pIC50

Reference set (3 entries):
Cc1ncoc1COc1ccc2c(c1C)CCN(C[C@@H](O)CNC(=O)c1cc(NC3CCCC3)ncn1)C2 [Compound 367] :: 5.30 to 6.30
O=C(NC[C@H](O)CN1CCc2c(ccc(OCc3cnco3)c2Cl)C1)c1ccnc(NC2CCC(F)(F)CC2)c1 [Compound 425] :: 6.30 to 7.30
O=C(NC[C@H](O)CN1CCc2c(ccc(OCc3cnco3)c2Cl)C1)c1ccc(OC2CCOCC2)cc1 [Compound 482] :: 5.30 to 6.30

Provide value of pIC50 for this record tested with PRMT5 (Homo sapiens, UniProt O14744): CCCN(C)c1nc(NC2COC2)cc(C(=O)NC[C@H](O)CN2CCc3cc(OCc4ocnc4C)ccc3C2)n1 [Compound 390] 6.30 to 7.30

---

assay_system: PRMT5 (Homo sapiens, UniProt O14744)
Construct: purchased Viva (custom protein)
assay_name: PRMT5 IC50 assay with no cofactor
Assay type: biochemical
pIC50: −log10 of the molar value.
Quick reference: pIC50 of the listed items.

Field: example entries. Status: answers known.
CC(=O)N1CC(Nc2cc(C(=O)NC[C@H](O)CN3CCc4cc(OCc5ocnc5C)c(F)cc4C3)nc(N3CCCCC3)n2)C1 :: 6.30 to 7.30
Cc1c(OCc2cnco2)ccc2c1CCN(C[C@@H](O)CNC(=O)c1ccnc(NC3CN(C(=O)C4CCC4)C3)c1)C2 :: 5.30 to 6.30
Cc1ncoc1COc1ccc2c(c1C)CCN(C[C@@H](O)CNC(=O)c1cc(NC3CCC3)ccn1)C2 :: ≤ 5.30

Entry `CCC(=O)N1CC(Nc2cc(C(=O)NC[C@H](O)CN3CCc4c(ccc(OCc5cnco5)c4C)C3)ncn2)C1` has what pIC50? ≤ 5.30

Sample `Cc1ncoc1COc1ccc2c(c1C)CCN(C[C@@H](O)CNC(=O)c1cc(NC3CCC3)nc(N3CCN(C)CC3)c1)C2` — what was its pIC50? 5.30 to 6.30

So what's the measured pIC50 for this one? `Cc1ncoc1COc1ccc2c(c1C)CCN(C[C@@H](O)CNC(=O)c1cc(NC3CCC3)nc(N3CCOCC3)c1)C2` ≤ 5.30

// pIC50 lookup, key: `Cc1c(OCc2cnco2)ccc2c1CCN(C[C@@H](O)CNC(=O)c1cc(NC3CCC3)ccn1)C2` ≤ 5.30
